conditions: in acetone, 308.15 K
attribute_measured: solubility (mole fraction)

>  <compound>
CCc1cccc2c3c([nH]c12)C(CC)(CC(=O)O)OCC3 (stereo unspecified)

>  <measured_value>
0.147

$$$$

* * *

details: in toluene, 303.15 K
attribute_measured: solubility (mole fraction)

>  <compound>
CCc1cccc2c3c([nH]c12)C(CC)(CC(=O)O)OCC3 (stereo unspecified)

>  <attribute_measured>
solubility (mole fraction)

>  <measured_value>
0.00394

$$$$

* * *

conditions: in methyl acetate, 293.15 K

>  <compound>
CCc1cccc2c3c([nH]c12)C(CC)(CC(=O)O)OCC3 (stereo unspecified)

>  <solubility (mole fraction)>
0.0638

$$$$
